molecular target: glucagon receptor (UniProt P47871 26-477, limits assumed); assay: cell-based or functional assay
Sequence (P47871 26-477 limits assumed): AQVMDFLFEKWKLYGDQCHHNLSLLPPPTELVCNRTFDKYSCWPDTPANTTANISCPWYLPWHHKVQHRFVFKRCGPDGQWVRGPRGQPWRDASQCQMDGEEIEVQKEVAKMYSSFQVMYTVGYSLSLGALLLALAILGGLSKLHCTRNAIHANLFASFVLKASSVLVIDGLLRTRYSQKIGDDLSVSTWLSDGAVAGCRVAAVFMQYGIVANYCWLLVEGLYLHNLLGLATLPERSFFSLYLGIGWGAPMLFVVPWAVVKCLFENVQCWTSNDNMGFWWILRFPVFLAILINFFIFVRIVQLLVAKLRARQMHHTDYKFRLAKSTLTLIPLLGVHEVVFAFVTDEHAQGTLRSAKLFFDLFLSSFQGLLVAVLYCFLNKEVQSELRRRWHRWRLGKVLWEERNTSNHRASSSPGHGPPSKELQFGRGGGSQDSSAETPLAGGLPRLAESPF
Non-standard residues stand in square brackets, D forms with d. No end group written: not given here. *: point of attachment. Myristoyl = CCCCCCCCCCCCCC(=O)*; Aib = CC(C)(N)C(=O)O
EC50 values by entry

- binder: "H[Aib]QGTFTSDYSKYLD[Aib]QAAKEFIC(PEG 40 kDa)WLMNGGPSSGAPPPSK(Myristoyl)-NH2 [mt-351]"
  value-units: "nM"
  EC50: 0.196
- binder: "HXQGTFTSDYSKYLDEQAAKEFIAWLMNGGPSSGAPPPSK (acylated Lys at 40) [mt-364]"
  value-units: "nM"
  EC50: 0.0183
- binder: "HXQGTFTSDYSKYLDEQAAKEFICWLMNGGPSSGAPPPSK (AIB at 2; Lys 40 acylated with a C14 fatty acyl group) [mt-345]"
  value-units: "nM"
  EC50: 0.0183
